pIC50: −log10 of the molar value.
Here is a set of molecules with reported pIC50 for UniProt P06870, compiled from the literature.

Nc1nn(Cc2ccc(Cn3ccccc3=O)cc2)cc1C(=O)N[C@H]1CCN(c2cccc(Cl)c2)C1    < 4.40
O=C(NCc1c(F)cccc1-n1cnnn1)c1cn(Cc2ccc(Cn3ccccc3=O)cc2)nc1C(F)(F)F    < 5.40
Cc1cnn(Cc2ccc(Cn3cc(C(=O)NCc4ccc5c(N)nccc5c4)nn3)cc2)c1    < 5.00
CC1CCCC(C)N1CC(=O)N[C@@H](Cc1ccc(F)c(F)c1)C(=O)NCc1ccc(N)nc1 (stereo partly drawn)    8.60
COCc1nn(Cc2ccc(N3CCCC3)nc2)cc1C(=O)NCc1c(-n2cnnn2)ccc(OC)c1F    < 4.40

Give pIC50 for "Cc1cc(CN)ccc1CNC(=O)c1cc(C)n(Cc2csc(-c3ccccc3)n2)c1C"
< 5.00

====

Here is a set of molecules with reported IC50 for Human KLK1 (Homo sapiens (Human)), compiled from the literature.

Example entries begin here.
Cc1cnn(Cc2ccc(Cn3cc(C(=O)NCc4ccc5c(N)nccc5c4)c(C(F)F)n3)cc2)c1    8.05 µM
COCc1nn(Cc2ccc(Cn3ccc(C)cc3=O)cc2)cc1C(=O)NCCOc1cccc(Cl)c1    > 40 µM
CN(C(=O)CNC(=O)c1cn(Cc2ccc(Cn3ccccc3=O)cc2)nc1N)c1cccc(Cl)c1    > 40 µM
CCC(C)[C@@H](N)C(=O)N[C@@H](Cc1cc(F)cc(F)c1)C(=O)NCc1ccc(N)nc1 (stereo partly drawn)    0.0058 µM
CN1CCC[C@@H]1C(=O)N[C@@H](Cc1ccc(F)cc1)C(=O)NCc1ccc(N)nc1    0.0013 µM

Give the observed IC50 of "Cc1cc(C(=O)NCc2ccc(CN)cc2)c(-c2ccccc2)n1Cc1csc(-c2ccccc2)n1" for Human KLK1 (Homo sapiens (Human)).
> 10 µM

Give the observed IC50 of "Cc1cnn(Cc2ccc(Cn3cc(C(=O)NCc4ccc(CN)c(F)c4C)c(C(F)(F)F)n3)cc2)c1" for Human KLK1 (Homo sapiens (Human)).
> 10 µM

Give the observed IC50 of "COCc1nn(Cc2ccc3c(c2F)CCN(C)C3)cc1C(=O)NCc1c(-n2cc(C)nn2)ccc(OC)c1F" for Human KLK1 (Homo sapiens (Human)).
> 40 µM

Give the observed IC50 of "Cc1nc(C)c(N(C)Cc2ccc(Cn3cc(C(=O)NCc4cnc5[nH]ccc5c4)cn3)cc2)s1" for Human KLK1 (Homo sapiens (Human)).
> 40 µM

====

Here is a set of molecules with reported IC50 for UniProt P06870, compiled from the literature.

Example entries begin here.
COCc1nn(Cc2ccc3c(c2)CN(C)CC3)cc1C(=O)NCc1c(-n2ccc(C#N)n2)ccc(OC)c1F    > 40 µM
Cc1cnn(Cc2ccc(Cc3cncc(C(=O)NCc4c(C)cc(CN)cc4C)c3)cc2)c1    > 40 µM
COCc1nn(Cc2ccc3c(c2)CN(C)CC3)cc1C(=O)NCc1c(-n2cnc(C(F)F)n2)ccc(OC)c1F    > 40 µM

Give the observed IC50 of "COCc1nn(Cc2ccc(Cn3ccccc3=O)cc2)cc1C(=O)NCc1ccccc1C(F)F" for UniProt P06870.
> 10 µM

Give the observed IC50 of "COCc1nn(Cc2ccc3c(c2)CCN(C)C3)cc1C(=O)NCc1c(-n2ccc(C#N)n2)ccc(OC)c1F" for UniProt P06870.
> 40 µM

====

Here is a set of compounds with reported IC50 for Human KLK1 (Homo sapiens (Human), UniProt P06870), compiled from the literature.

Example entries begin here.
COc1cc(Cn2cc(C(=O)NCCOc3cccc(Cl)c3)c(N)n2)ccc1Cn1ccccc1=O    > 40 µM
CCOc1cccc(CNC(=O)c2cn(Cc3ccc(Cn4cc(C)cn4)cc3)nc2C(F)(F)F)c1    > 10 µM

Now examine the next entry.
Give IC50 for "Cc1ccc(-c2nc(Cn3c(C)cc(C(=O)NCc4ccc(CN)cc4)c3C)cs2)cc1"
> 10 µM
